# assayed.target: UP1(R75E/R88E) (UniProt P09651 1-196, R75E;R88E)
# Sequence (P09651 1-196 R75E/R88E): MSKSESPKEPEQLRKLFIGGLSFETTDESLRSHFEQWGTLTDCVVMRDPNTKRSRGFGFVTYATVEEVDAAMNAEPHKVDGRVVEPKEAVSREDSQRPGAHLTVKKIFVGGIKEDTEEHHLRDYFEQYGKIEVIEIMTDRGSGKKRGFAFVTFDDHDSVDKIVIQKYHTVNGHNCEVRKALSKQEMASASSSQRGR
# test.details: ITC; N=1.1; ITC: 20 mM Na phosphate pH 6.5, 100 mM NaCl, no DTT, 25 C; EMSA: 100 mM KCl, 20% glycerol, 0.2 mM EDTA, 100 mM Tris pH 8.0, 0.5 mM DTT, 0.5 mM ATP, 20 mM creatine phosphate, 3.2 mM MgCl2, 4 C; footprint: 12 mM Tris-HCl pH 7.5, 48 mM NaCl, 1.2 mM MgCl2, 37 C
# applied.conditions: protein: recombinant; tags: His tag removed by TEV; single strand
measurement.kind: pKd
# log scale: pKd equals minus log10 of the concentration in mol/L

# input binder: AGUAGAUUAGCA (ssRNA) [12-mer] ; wanted: its pKd
7.40
